Hello, the source for this data is ChEMBL document CHEMBL3286108, in case you need it.

- study.target: UniProt P31645
- Sequence (P31645 whole entry): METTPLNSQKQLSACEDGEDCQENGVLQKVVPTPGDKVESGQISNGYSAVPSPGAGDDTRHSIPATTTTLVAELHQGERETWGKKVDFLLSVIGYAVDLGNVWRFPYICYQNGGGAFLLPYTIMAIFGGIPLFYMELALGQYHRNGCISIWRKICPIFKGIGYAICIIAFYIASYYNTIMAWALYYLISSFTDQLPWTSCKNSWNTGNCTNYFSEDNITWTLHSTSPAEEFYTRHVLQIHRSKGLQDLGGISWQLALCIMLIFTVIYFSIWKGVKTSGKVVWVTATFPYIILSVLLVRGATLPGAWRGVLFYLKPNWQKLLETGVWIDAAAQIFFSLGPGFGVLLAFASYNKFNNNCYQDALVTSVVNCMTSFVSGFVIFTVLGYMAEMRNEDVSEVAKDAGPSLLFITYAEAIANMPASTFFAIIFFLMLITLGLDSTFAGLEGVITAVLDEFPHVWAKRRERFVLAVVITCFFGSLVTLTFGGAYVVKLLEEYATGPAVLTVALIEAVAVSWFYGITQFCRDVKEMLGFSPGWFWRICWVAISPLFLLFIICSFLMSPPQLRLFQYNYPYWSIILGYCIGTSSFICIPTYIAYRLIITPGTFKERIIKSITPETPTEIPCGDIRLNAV
pIC50: −log10 of the molar value.
endpoint: pIC50

structure_as_smiles=O=S(=O)(NCCCCN1CCC(c2noc3cc(F)ccc23)CC1)c1cc2ccccc2s1 endpoint=pIC50 measured_result="< 6.00"

* * *

- study.target: hERG (KCNH2) potassium channel (Homo sapiens)
- Sequence (Q12809 whole entry): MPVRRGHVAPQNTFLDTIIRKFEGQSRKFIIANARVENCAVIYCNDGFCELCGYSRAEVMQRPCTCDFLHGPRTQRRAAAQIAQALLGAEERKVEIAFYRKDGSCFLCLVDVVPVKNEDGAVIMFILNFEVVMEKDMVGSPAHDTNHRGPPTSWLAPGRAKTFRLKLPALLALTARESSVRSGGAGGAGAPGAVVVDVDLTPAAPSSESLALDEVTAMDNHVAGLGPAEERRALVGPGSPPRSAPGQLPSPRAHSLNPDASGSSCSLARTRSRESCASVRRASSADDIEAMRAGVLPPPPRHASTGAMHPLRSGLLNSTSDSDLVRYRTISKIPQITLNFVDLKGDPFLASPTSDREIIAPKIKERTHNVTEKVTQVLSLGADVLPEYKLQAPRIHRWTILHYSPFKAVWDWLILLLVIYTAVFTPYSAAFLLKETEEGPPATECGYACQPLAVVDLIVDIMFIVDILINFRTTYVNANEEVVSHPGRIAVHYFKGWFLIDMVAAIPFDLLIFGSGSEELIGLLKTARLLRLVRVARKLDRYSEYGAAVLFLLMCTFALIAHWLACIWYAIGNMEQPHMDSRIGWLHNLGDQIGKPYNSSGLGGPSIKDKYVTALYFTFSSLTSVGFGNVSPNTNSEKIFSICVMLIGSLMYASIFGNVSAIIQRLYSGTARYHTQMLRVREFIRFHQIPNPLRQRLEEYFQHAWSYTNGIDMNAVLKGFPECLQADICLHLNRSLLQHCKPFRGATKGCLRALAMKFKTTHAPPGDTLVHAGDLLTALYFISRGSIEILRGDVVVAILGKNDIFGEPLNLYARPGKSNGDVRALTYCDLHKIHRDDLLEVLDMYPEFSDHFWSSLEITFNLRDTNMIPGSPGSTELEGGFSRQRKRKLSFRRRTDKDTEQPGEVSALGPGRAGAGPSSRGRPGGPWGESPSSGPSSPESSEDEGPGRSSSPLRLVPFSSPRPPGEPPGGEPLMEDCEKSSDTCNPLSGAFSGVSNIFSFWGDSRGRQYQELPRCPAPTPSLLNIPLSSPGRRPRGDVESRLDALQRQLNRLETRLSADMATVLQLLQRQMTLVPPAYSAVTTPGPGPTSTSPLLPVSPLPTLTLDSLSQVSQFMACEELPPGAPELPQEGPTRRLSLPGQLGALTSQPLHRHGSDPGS
- procedure.details: in vitro
- protocol.conditions: CHO cells expressing human cloned ERG
endpoint: inhibition at 1 µM

structure_as_smiles=O=S(=O)(NCCCN1CCN(c2nsc3ccccc23)CC1)c1cc2ccccc2s1 measured_result=12%
structure_as_smiles=O=S(=O)(NCCCN1CCN(c2nsc3ccccc23)CC1)c1ccc2ccccc2c1 measured_result=13%
structure_as_smiles=O=S(=O)(NCCCCN1CCN(c2nsc3ccccc23)CC1)c1cc2ccc(Cl)cc2s1 measured_result=5%
structure_as_smiles=Cc1cccc(S(=O)(=O)NCCCCN2CCN(c3nsc4ccccc34)CC2)c1 measured_result=17%
structure_as_smiles=O=S(=O)(NCCCN1CCC(c2noc3cc(F)ccc23)CC1)c1ccc(OC(F)(F)F)cc1 measured_result=87%

* * *

- study.target: 5-hydroxytryptamine receptor 7 (Homo sapiens, UniProt P34969)
- Sequence (P34969 whole entry): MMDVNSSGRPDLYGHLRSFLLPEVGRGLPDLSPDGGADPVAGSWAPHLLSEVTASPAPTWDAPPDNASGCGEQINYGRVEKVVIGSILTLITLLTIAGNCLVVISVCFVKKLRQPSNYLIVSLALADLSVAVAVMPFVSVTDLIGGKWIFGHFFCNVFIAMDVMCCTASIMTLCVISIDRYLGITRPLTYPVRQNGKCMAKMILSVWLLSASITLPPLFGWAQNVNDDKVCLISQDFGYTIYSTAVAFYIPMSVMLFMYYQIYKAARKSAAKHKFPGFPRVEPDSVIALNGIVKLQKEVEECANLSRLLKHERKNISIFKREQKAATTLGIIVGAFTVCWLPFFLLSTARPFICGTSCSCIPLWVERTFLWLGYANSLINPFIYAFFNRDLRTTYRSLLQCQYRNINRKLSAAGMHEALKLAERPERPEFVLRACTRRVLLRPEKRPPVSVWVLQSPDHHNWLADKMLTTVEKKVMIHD
- procedure.details: biochemical
- Type: cell-based, CHO-K1
endpoint: log10 of Ki (log10 of the value in nM)

structure_as_smiles=O=S(=O)(NCCCN1CCN(c2nsc3ccccc23)CC1)c1ccc2cc(Cl)ccc2c1 endpoint="log10 of Ki" measured_result=1.58
structure_as_smiles=O=S(=O)(NCCCCN1CCN(c2noc3ccccc23)CC1)c1cccc2scnc12 endpoint="log10 of Ki" measured_result=1.76
structure_as_smiles=O=S(=O)(NCCN1CCC(c2noc3cc(F)ccc23)CC1)c1ccc2ccccc2c1 endpoint="log10 of Ki" measured_result=-0.40
structure_as_smiles=O=S(=O)(NCCCCN1CCN(c2noc3ccccc23)CC1)c1cccs1 endpoint="log10 of Ki" measured_result=1.83
structure_as_smiles=Cc1c(S(=O)(=O)NCCCCN2CCC(c3noc4cc(F)ccc34)CC2)sc2ccc(Cl)cc12 endpoint="log10 of Ki" measured_result=-0.15
structure_as_smiles=O=S(=O)(NCCN1CCN(c2nsc3ccccc23)CC1)c1ccc2ccccc2c1 endpoint="log10 of Ki" measured_result=0.18
structure_as_smiles=O=S(=O)(NCCCCN1CCC(c2noc3cc(F)ccc23)CC1)c1cccc2scnc12 endpoint="log10 of Ki" measured_result=1.11
structure_as_smiles=O=S(=O)(NCCCCN1CCC(c2noc3cc(F)ccc23)CC1)c1ccc2ccccc2c1 endpoint="log10 of Ki" measured_result=0.15
structure_as_smiles=O=S(=O)(NCCCCN1CCN(c2nsc3ccccc23)CC1)c1ccc(F)c(Cl)c1 endpoint="log10 of Ki" measured_result=0.72
structure_as_smiles=Cc1cccc(S(=O)(=O)NCCCCN2CCC(c3noc4cc(F)ccc34)CC2)c1 endpoint="log10 of Ki" measured_result=0.18
structure_as_smiles=O=S(=O)(NCCCN1CCC(c2noc3cc(F)ccc23)CC1)c1ccc2cc(Cl)ccc2c1 endpoint="log10 of Ki" measured_result=1.26
structure_as_smiles=O=S(=O)(NCCCCN1CCN(c2noc3ccccc23)CC1)c1ccc(F)c(Cl)c1 endpoint="log10 of Ki" measured_result=-1.00
structure_as_smiles=O=S(=O)(NCCCN1CCN(c2noc3ccccc23)CC1)c1cccs1 endpoint="log10 of Ki" measured_result=1.97
structure_as_smiles=O=S(=O)(NCCCN1CCN(c2nsc3ccccc23)CC1)c1cccc2scnc12 endpoint="log10 of Ki" measured_result=0.30
structure_as_smiles=O=S(=O)(NCCCN1CCN(c2nsc3ccccc23)CC1)c1cc2ccccc2s1 endpoint="log10 of Ki" measured_result=1.11
structure_as_smiles=O=S(=O)(NCCCN1CCN(c2noc3ccccc23)CC1)c1ccc(OC(F)(F)F)cc1 endpoint="log10 of Ki" measured_result=2.58
structure_as_smiles=Cc1cccc(S(=O)(=O)NCCCCN2CCN(c3noc4ccccc34)CC2)c1 endpoint="log10 of Ki" measured_result=0.04
structure_as_smiles=O=S(=O)(NCCCN1CCN(c2nsc3ccccc23)CC1)c1cnc2ccccn12 endpoint="log10 of Ki" measured_result=0.80
structure_as_smiles=O=S(=O)(NCCCCN1CCN(c2noc3ccccc23)CC1)c1cc2ccccc2s1 endpoint="log10 of Ki" measured_result=2.26
structure_as_smiles=O=S(=O)(NCCCN1CCN(c2nsc3ccccc23)CC1)c1cc2ccc(Cl)cc2s1 endpoint="log10 of Ki" measured_result=1.73
structure_as_smiles=O=S(=O)(NCCCCN1CCC(c2noc3cc(F)ccc23)CC1)c1ccc(Cl)c(Cl)c1 endpoint="log10 of Ki" measured_result=0.71
structure_as_smiles=O=S(=O)(NCCCCN1CCN(c2nsc3ccccc23)CC1)c1cccc2scnc12 endpoint="log10 of Ki" measured_result=0.53
structure_as_smiles=Cc1c(S(=O)(=O)NCCCN2CCN(c3noc4ccccc34)CC2)sc2ccc(F)cc12 endpoint="log10 of Ki" measured_result=2.30
structure_as_smiles=Cc1c(S(=O)(=O)NCCCN2CCC(c3noc4cc(F)ccc34)CC2)sc2ccc(F)cc12 endpoint="log10 of Ki" measured_result=1.00
structure_as_smiles=O=S(=O)(NCCCN1CCC(c2noc3cc(F)ccc23)CC1)c1cnc2ccccn12 endpoint="log10 of Ki" measured_result=0.51
structure_as_smiles=O=S(=O)(NCCCN1CCN(c2nsc3ccccc23)CC1)c1ccc2ccccc2c1 endpoint="log10 of Ki" measured_result=0.18
structure_as_smiles=O=S(=O)(NCCCCN1CCN(c2nsc3ccccc23)CC1)c1ccc(Cl)c(Cl)c1 endpoint="log10 of Ki" measured_result=0.84
structure_as_smiles=O=S(=O)(NCCCCN1CCC(c2noc3cc(F)ccc23)CC1)c1cccc2ccccc12 endpoint="log10 of Ki" measured_result=-0.10
structure_as_smiles=O=S(=O)(NCCCN1CCC(c2noc3cc(F)ccc23)CC1)c1cccc2scnc12 endpoint="log10 of Ki" measured_result=0.11
structure_as_smiles=O=S(=O)(NCCCN1CCC(c2noc3cc(F)ccc23)CC1)c1ccc2ccccc2c1 endpoint="log10 of Ki" measured_result=-0.10
structure_as_smiles=O=S(=O)(NCCCCN1CCC(c2noc3cc(F)ccc23)CC1)c1ccc2cc(Cl)ccc2c1 endpoint="log10 of Ki" measured_result=0.51
structure_as_smiles=O=S(=O)(NCCCCN1CCC(c2noc3cc(F)ccc23)CC1)c1ccc(OC(F)(F)F)cc1 endpoint="log10 of Ki" measured_result=1.18
structure_as_smiles=O=S(=O)(NCCCN1CCN(c2nsc3ccccc23)CC1)c1ccc(OC(F)(F)F)cc1 endpoint="log10 of Ki" measured_result=1.46
structure_as_smiles=O=S(=O)(NCCCCN1CCN(c2nsc3ccccc23)CC1)c1ccc2cc(Cl)ccc2c1 endpoint="log10 of Ki" measured_result=1.52
structure_as_smiles=O=S(=O)(NCCCCN1CCN(c2nsc3ccccc23)CC1)c1cnc2ccccn12 endpoint="log10 of Ki" measured_result=0.61
structure_as_smiles=O=S(=O)(NCCCN1CCC(c2noc3cc(F)ccc23)CC1)c1cccc2ccccc12 endpoint="log10 of Ki" measured_result=-0.30
structure_as_smiles=O=S(=O)(NCCCCN1CCC(c2noc3cc(F)ccc23)CC1)c1cnc2ccccn12 endpoint="log10 of Ki" measured_result=1.15
structure_as_smiles=O=S(=O)(NCCCCN1CCN(c2noc3ccccc23)CC1)c1cnc2ccccn12 endpoint="log10 of Ki" measured_result=0.77
structure_as_smiles=O=S(=O)(NCCCN1CCC(c2noc3cc(F)ccc23)CC1)c1ccc(OC(F)(F)F)cc1 endpoint="log10 of Ki" measured_result=0.94
